Test system: OVCAR-3
METHOD DESCRIPTION: NCI tumour cell line growth inhibition, 48 h
Activity calls are given as the source filed them. Rule as the data show it: active = GI50 up to about 1.1 µM and inactive = higher.
Field 'call' accepts active, inactive

Assay result, entry Cc1cc2c(C)nn(Cc3ccccc3)c2c(C(N)=O)c1C — outcome? inactive

Assay result, entry CC(C)=CCc1cc2c(cc1O)OC[C@H]1c3cc4c(cc3O[C@@H]21)OCO4 — outcome? inactive

Assay result, entry c1ccc2c(c1)[nH]c1c2cc[n+]2cc3c(cc12)CCCC3 — outcome? inactive

Assay result, entry N#Cc1c(N)[nH]c(=S)c(C#N)c1-c1cccc(Cl)c1 — outcome? inactive

Assay result, entry COc1ccc(C2C3=C(N=C4SC(C(C)=O)=C(C)N42)c2ccccc2CC3)cc1 (stereo not drawn) — outcome? inactive

Assay result, entry CN(C)c1ccc(C(c2ccc(Cl)cc2)c2ccc(N(C)C)cc2)cc1 — outcome? inactive

Assay result, entry CC[C@@]12CCC(=S)N(CCSc3ccccc3)[C@@H]1c1c(n(S(=O)(=O)c3ccc(OC)cc3)c3ccccc13)CC2 — outcome? inactive

Assay result, entry COc1cc2c(cc1OC)NC(=O)NC(Cc1ccc3c(c1)OCO3)CC2 (stereo not drawn) — outcome? inactive

Assay result, entry Cc1ccc2occ/c(=N\Nc3ccccc3)c2c1 — outcome? inactive

* * *

Measured GI50, listed per entry for reference.
System: SF-295
METHOD DESCRIPTION: NCI tumour cell line growth inhibition, 48 h
Activity calls are given as the source filed them. Rule as the data show it: active = GI50 up to about 1.1 µM and inactive = higher.

Example molecules with recorded GI50:
CCOP(=O)(OCC)C(C)(CC)N/C(=N\C1=NC(C(F)(F)F)(C(F)(F)F)N=C(C(F)(F)F)O1)NC(NC(C)=O)(C(F)(F)F)C(F)(F)F (stereo not given)    18 µM (inactive)
CC1SC2(CCCCC2)N(NC(=O)CSc2nc3ccc(Cl)cc3c(=O)n2-c2ccccc2)C1=O (stereo not given)    18.5 µM (inactive)
CCOC(=O)/C(=C/c1ccco1)P(=O)(OCC)OCC    > 100 µM (inactive)

Please give the documented GI50 of CNC(=O)c1nnn(Cc2ccccc2)c1S > 100 µM (inactive)

Please give the documented GI50 of CCOP(=O)(OCC)C(C)(CC)N/C(N)=N/C#N (stereo not given) > 100 µM (inactive)

Please give the documented GI50 of COC(=O)c1ccccc1CC1Cc2cccc(C)c2C1=O (stereo not given) 38.9 µM (inactive)

Please give the documented GI50 of Cc1c2c(c(C)c3c1[nH]c1ccccc13)CN(C)CC2 17.1 µM (inactive)

Please give the documented GI50 of CC(C)(C)c1cc(C(OCCl)(C(F)(F)F)C(F)(F)F)c2c(c1)C(C(F)(F)F)(C(F)(F)F)OC21c2ccccc2C(=O)c2ccccc21 > 100 µM (inactive)

Please give the documented GI50 of O=C1C(c2ccccc2)=C(c2ccccc2)C1(Cl)Cl 9.89 µM (inactive)

Please give the documented GI50 of COc1ccc2nc3cc(Cl)ccc3c(Sc3ccc([N+](=O)[O-])cc3)c2c1 > 10 µM (inactive)

* * *

System: OVCAR-4
METHOD DESCRIPTION: NCI tumour cell line growth inhibition, 48 h
Activity calls are given as the source filed them. Cut-off read from the data, not from the text of the source: active = GI50 up to about 1.1 µM and inactive = higher.
READOUT LABEL: GI50

Example molecules with recorded GI50:
OC1c2ccccc2C2(O)C1C(c1ccccc1)C(c1ccccc1)C2(O)c1ccccc1 (centres undefined)    19.5 µM (inactive)
O=S(=O)(O)c1cc(O)c2c(O)c(/N=N/c3ccc(/C=C/c4ccc(/N=N/c5c(S(=O)(=O)O)cc6cc(S(=O)(=O)O)cc(O)c6c5O)cc4S(=O)(=O)O)c(S(=O)(=O)O)c3)c(S(=O)(=O)O)cc2c1    > 100 µM (inactive)

Please give the documented GI50 of C[N+](C)(C)CC1CCC/C1=N\OC(=O)c1ccccc1 (centres undefined) > 100 µM (inactive)

Please give the documented GI50 of O=C(OCCN=C1c2ccccc2CCc2ccccc21)c1ccccc1 > 100 µM (inactive)
